- System: HT29 colon
- Protocol Text: NCI-60 one-dose screen, 48 h
- Condition: 10 µM unless noted
- Procedure: Growth inhibition of the HT29 human tumor cell line is measured as a screen for anti-cancer activity. Cells are grown in 96 well plates and exposed to the test compound for 48 hours. Compounds are tested at a single concentration, which is 10^-5 M for most compounds. The reported endpoint is percent growth (GI% or GIPRCNT), where numbers from 0 - 100% represent growth inhibition, and numbers from -100% - 0 represent cell death. For example, a value of 40 represents 60% growth inhibition. […]
The panel holds about 83,000 compounds, 20% with a hit somewhere; the sample as a whole holds those more often. The source made the active and inactive calls. Rule for the calls: active = growth percent below 10; inactive = the rest.
Hi there, use one of these labels in your reply, thanks! Y for active, N for inactive

Examples with answers:
# Compound, Discrete Label
measured = [
    ("COc1ccc(N2CCN(S(=O)(=O)c3oc(-c4ccccc4)nc3C#N)CC2)cc1", "N"),
    ("N=C1/C(=C2\\NC3C=CC=CC3S2)C(c2ccc(Cl)cc2)C2C(=O)N(c3ccccc3)C(=S)N12 (stereo not given)", "N"),
    ("O=C(/C=C/c1ccc(F)cc1)Nc1ncc(Cc2ccc(F)cc2)s1", "N"),
    ("C=CCOc1ccc(/C=C2\\SC(=S)N(CCc3ccc(O)cc3)C2=O)cc1", "N"),
]

Status in this test for Clc1ccc2c(c1)N(c1ncnc3ccc(-c4cnc5[nH]ccc5c4)cc13)CC2 ? Y

###

- System: UACC-257 melanoma
- Protocol Text: NCI-60 one-dose screen, 48 h
- Condition: 10 µM unless noted
Compounds without any hit were thinned out: in the full panel of roughly 83,000, 20% have a hit. The source made the active and inactive calls. The calls were made as follows: active = growth percent below 10; inactive = the rest.
I would appreciate it if you answered using one of these outcomes: Y = active, N = inactive

Consider the worked cases shown below.
# Compound, Discrete Label
measured = [
    ("CCN1C(=O)N(c2ccccc2)C2NC(=S)N(/N=C/C=C/c3ccccc3)C21 (stereo not given)", "N"),
    ("O=C(/C=C/c1ccc(F)cc1)Nc1ncc(Cc2ccc(F)cc2)s1", "N"),
]

Hey, what did the test say about O=C(Nc1ccc(F)cc1)c1cc2cc(Nc3nc(-c4ccccc4)nc4ccccc34)ccc2oc1=O ? N

Another compound: Cc1ccc(/C=C/c2c(C(=O)/C=C/c3ccccc3)c(C)nc3ccccc23)cc1 N

Another compound to check: CCN1C(=O)/C(=c2\sc3n(c2=O)C2C(NN=3)N(CC)C(=O)N2CC)c2ccccc21 (stereo not given) N

Could you do the same for Cc1nc2sc(C(=O)Nc3cccc4ccccc34)c(N)c2cc1C(=O)/C=C/c1ccccc1 , please? N

Also, Cc1nc2sc(C(=O)Nc3cccc4ncccc34)c(N)c2cc1C(C)O (stereo not given) please. N

# repeat for COc1ccc(/C=C2/C(=O)N=C3N2NC(c2ccccc2)=CN3c2ccccc2)cc1 N

Try COCCn1cc(-c2csc(-c3cn(C)c4ccc(F)cc34)n2)c2cccnc21 next. N

###

- Test system: MDA-MB-435 melanoma
- Protocol Text: NCI-60 one-dose screen, 48 h
- Condition: 10 µM unless noted
- Description: Growth inhibition of the MDA-MB-435 human Melanoma tumor cell line is measured as a screen for anti-cancer activity. Cells are grown in 96 well plates and exposed to the test compound for 48 hours. Compounds are tested at a single concentration, which is 10^-5 M for most compounds. The reported endpoint is percent growth (GI% or GIPRCNT), where numbers from 0 - 100% represent growth inhibition, and numbers from -100% - 0 represent cell death. […]
About 83,000 compounds went through this panel and 20% of them were active in at least one assay; those are over-represented in the sample as a whole. Calls of active or inactive are those of the source. The calls were made as follows: active = growth percent below 10; inactive = the rest.
Lab note: assign the record to one of active, inactive

Answered examples (5):
# Molecular String, Discrete Label
records = [
    ("CON1CCC[C@]2(C)[C@H]3CC[C@@H]4[C@H]5[C@@H](O)C(C)(C)CC[C@]5(CO)CC[C@@]4(C)[C@]3(C)CC[C@H]2C1(C)C", "inactive"),
    ("Nc1ccc(/C=N/Nc2ccnc3c(N)cccc23)c2cccnc12", "active"),
    ("C=CCN1C=CC(=O)[C@H](O[Si](C)(C)C(C)(C)C)[C@@H]1/C=C/c1ccccc1", "active"),
    ("C#Cc1cc(C(=O)Nc2ccc(CN3CCN(C)CC3)c(C(F)(F)F)c2)ccc1C", "inactive"),
    ("O=C1/C(=C/c2ccc(-c3ccccc3C(F)(F)F)o2)SC(=S)N1CCc1ccc(O)cc1", "active"),
]

I'd appreciate the recorded outcome for C=C(CN1CC=CCC1)[C@@H]1CC[C@]2(COC(C)=O)CC[C@]3(C)[C@H](CC[C@@H]4[C@@]5(C)CC[C@H](O)C(C)(C)[C@@H]5CC[C@]43C)[C@@H]12 from this test. inactive

Then this compound: O=S(=O)(O)c1ccc(N=Nc2ccc(N=Nc3cccc4ccccc34)c(S(=O)(=O)O)c2)cc1 inactive

Request: Cc1c(C(C)(C)O)cn2ncnc(Oc3ccc(NC(=O)Nc4ccc(Cl)c(C(F)(F)F)c4)cc3)c12 inactive
